Numbers sourced from the kinase profiling compilation of Christmann-Franck et al. (2016).

target: UniProtKB P54753; assay: radiometric filter-binding kinase assay; conditions: compound 10.0 µM
Sequence (P54753 whole entry, looked up): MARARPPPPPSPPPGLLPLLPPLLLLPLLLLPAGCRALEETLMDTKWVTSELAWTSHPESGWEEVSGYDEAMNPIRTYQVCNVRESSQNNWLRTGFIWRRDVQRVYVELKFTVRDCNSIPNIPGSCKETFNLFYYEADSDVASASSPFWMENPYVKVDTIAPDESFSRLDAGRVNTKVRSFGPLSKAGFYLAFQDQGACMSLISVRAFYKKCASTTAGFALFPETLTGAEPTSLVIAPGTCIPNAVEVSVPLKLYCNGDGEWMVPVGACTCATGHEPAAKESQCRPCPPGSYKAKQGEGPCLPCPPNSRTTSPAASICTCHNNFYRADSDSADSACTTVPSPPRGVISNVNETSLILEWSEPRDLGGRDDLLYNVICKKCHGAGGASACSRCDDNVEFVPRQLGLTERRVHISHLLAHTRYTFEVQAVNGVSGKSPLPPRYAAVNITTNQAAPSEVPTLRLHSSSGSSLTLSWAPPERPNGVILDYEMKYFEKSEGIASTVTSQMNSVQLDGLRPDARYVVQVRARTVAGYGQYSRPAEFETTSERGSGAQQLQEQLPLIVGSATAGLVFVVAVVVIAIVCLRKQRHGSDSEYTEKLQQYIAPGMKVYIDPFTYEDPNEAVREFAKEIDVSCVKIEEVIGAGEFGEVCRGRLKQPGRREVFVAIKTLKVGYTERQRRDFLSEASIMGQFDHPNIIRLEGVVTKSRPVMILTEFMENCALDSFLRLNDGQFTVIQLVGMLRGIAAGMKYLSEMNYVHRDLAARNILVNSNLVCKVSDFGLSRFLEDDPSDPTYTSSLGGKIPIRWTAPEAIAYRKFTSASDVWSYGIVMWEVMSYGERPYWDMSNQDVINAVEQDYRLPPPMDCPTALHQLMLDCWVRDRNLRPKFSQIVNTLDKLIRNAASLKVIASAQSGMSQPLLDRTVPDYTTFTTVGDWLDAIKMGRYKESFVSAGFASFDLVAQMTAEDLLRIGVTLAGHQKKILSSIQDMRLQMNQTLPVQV

Compound	residual activity
O=C(NOCC(O)CO)c1ccc(F)c(F)c1Nc1ccc(I)cc1Cl (centres undefined)	82%
NC(=O)c1c(NC(=O)C2CC2)sc2c1CCCC2	109%
NS(=O)(=O)OC[C@@H]1C[C@@H](n2ccc3c(N[C@H]4CCc5ccccc54)ncnc32)C[C@@H]1O	129%
O=C(N[C@@H](COc1ccc2[nH]c(=O)[nH]c2c1)c1ccccc1)c1cccn(Cc2ccc(F)c(F)c2)c1=O	113%
CC1=C(CO)C(=O)O[C@@H]([C@@H](C)[C@H]2CC[C@H]3[C@@H]4C[C@H]5O[C@]56[C@@H](O)C=CC(=O)[C@]6(C)C4CC[C@]23C)C1 (some centres undefined)	97%
N#Cc1c(C2CCNCC2)cc(-c2c(O)cccc2OCC2CC2)nc1N	74%
COc1cc(C(=O)N2CCOCC2)c(F)cc1Nc1ncc(C(F)(F)F)c(NC2CC2)n1	105%
NCC(=O)Nc1ccc(-n2nc(C(F)(F)F)cc2-c2ccc3c(ccc4ccccc43)c2)cc1	82%
CCOC(=O)c1ccc(N2NC(=O)/C(=C/c3ccc([N+](=O)[O-])o3)C2=O)cc1	100%
